Tested on: alpha-glucosidase (unknown origin)
Test: Selectivity index, ratio of CC50 for Cytotoxicity against human LO2 cells to IC50 for alpha-glucosidase (unknown origin)
Format: toxicity, cell-based, L02
Conditions: read-out: Selectivity Index
measurement-type: selectivity ratio
Respond numerically, and do not add a unit to the figure.

sample-smiles | measurement-type | readout-number
CC1(C)CC[C@]2(C(=O)OCCn3ncn(-c4ccc(Cl)c(Cl)c4)c3=O)[C@H](O)C[C@]3(C)C(=CC[C@@H]4[C@@]5(C)CC[C@H](O)C(C)(C)[C@@H]5CC[C@]43C)[C@@H]2C1 | selectivity ratio | 19.5
COc1ccc(-c2noc(COC(=O)[C@]34CCC(C)(C)C[C@H]3C3=CC[C@@H]5[C@@]6(C)CC[C@H](O)C(C)(C)[C@@H]6CC[C@@]5(C)[C@]3(C)C[C@H]4O)n2)cc1 | selectivity ratio | 11.3
CC1(C)CC[C@]2(C(=O)O)[C@H](O)C[C@]3(C)C(=CC[C@@H]4[C@@]5(C)CC[C@H](O)C(C)(C)[C@@H]5CC[C@]43C)[C@@H]2C1 | selectivity ratio | 0.94
CC1(C)CC[C@]2(C(=O)OCc3nc(-c4ccc(Cl)cc4)no3)[C@H](O)C[C@]3(C)C(=CC[C@@H]4[C@@]5(C)CC[C@H](O)C(C)(C)[C@@H]5CC[C@]43C)[C@@H]2C1 | selectivity ratio | 26.4
CC1(C)CC[C@]2(C(=O)OCC(=O)NCc3cn(-c4ccc(Cl)c(Cl)c4)nn3)[C@H](O)C[C@]3(C)C(=CC[C@@H]4[C@@]5(C)CC[C@H](O)C(C)(C)[C@@H]5CC[C@]43C)[C@@H]2C1 | selectivity ratio | 58.3

Consider the compound CC1(C)CC[C@]2(C(=O)NCc3cn(-c4ccc(Cl)c(Cl)c4)nn3)[C@H](O)C[C@]3(C)C(=CC[C@@H]4[C@@]5(C)CC[C@H](O)C(C)(C)[C@@H]5CC[C@]43C)[C@@H]2C1 and give its measured selectivity ratio.
105

----------
Test: Cytotoxicity against human LO2 cells assessed as cell viability measured after 24 hrs by MTT assay
Format: toxicity, cell-based, L02
Listing of entries alongside the reported CC50 at 24 h.
Respond with a number, then the unit of measure.

Some entries whose results are on file:
sample-smiles | CC50 at 24 h
CC1(C)CC[C@]2(C(=O)O)[C@H](O)C[C@]3(C)C(=CC[C@@H]4[C@@]5(C)CC[C@H](O)C(C)(C)[C@@H]5CC[C@]43C)[C@@H]2C1 | 56.2 µM
CC1(C)CC[C@]2(C(=O)OCCn3ncn(-c4ccc(Cl)c(Cl)c4)c3=O)[C@H](O)C[C@]3(C)C(=CC[C@@H]4[C@@]5(C)CC[C@H](O)C(C)(C)[C@@H]5CC[C@]43C)[C@@H]2C1 | 66.8 µM

Consider now this further molecule.
Fill in the blank: the reported CC50 at 24 h of CC1(C)CC[C@]2(C(=O)NCc3cn(-c4ccc(Cl)c(Cl)c4)nn3)[C@H](O)C[C@]3(C)C(=CC[C@@H]4[C@@]5(C)CC[C@H](O)C(C)(C)[C@@H]5CC[C@]43C)[C@@H]2C1 is ____.
287 µM

----------
Assay: Cytotoxicity against human LO2 cells assessed as cell viability measured after 24 hrs by MTT assay
Assay type: toxicity, cell-based, L02
Recorded CC50 at 24 h, one value per entry.
Give the quantity in µM, number only.

sample-smiles | output-unit | CC50 at 24 h
COc1ccc(-c2noc(COC(=O)[C@]34CCC(C)(C)C[C@H]3C3=CC[C@@H]5[C@@]6(C)CC[C@H](O)C(C)(C)[C@@H]6CC[C@@]5(C)[C@]3(C)C[C@H]4O)n2)cc1 | µM | 38.5
CC1(C)CC[C@]2(C(=O)OCC(=O)NCc3cn(-c4ccc(Cl)c(Cl)c4)nn3)[C@H](O)C[C@]3(C)C(=CC[C@@H]4[C@@]5(C)CC[C@H](O)C(C)(C)[C@@H]5CC[C@]43C)[C@@H]2C1 | µM | 198

// next entry
I would be grateful if you could share the reported CC50 at 24 h for CC1(C)CC[C@]2(C(=O)OCc3nc(-c4ccc(Cl)cc4)no3)[C@H](O)C[C@]3(C)C(=CC[C@@H]4[C@@]5(C)CC[C@H](O)C(C)(C)[C@@H]5CC[C@]43C)[C@@H]2C1 .
108

----------
Some compounds, each annotated with its measured IC50.
Target: Alpha-glucosidase (Saccharomyces cerevisiae S288c, UniProt P53341+P38158+P07265)
Test: Inhibition of alpha-glucosidase using 4-Nitrophenyl-[…]-D-glucopyranoside (pNPG) as substrate
Type: protein assay
Return type: number; implicit unit µM.

IC50 lookup needed for CC1(C)CC[C@]2(C(=O)OCCn3ncn(-c4ccc(F)cc4)c3=O)[C@H](O)C[C@]3(C)C(=CC[C@@H]4[C@@]5(C)CC[C@H](O)C(C)(C)[C@@H]5CC[C@]43C)[C@@H]2C1 , thanks.
29.32

Query: IC50; subject: CC1(C)CC[C@]2(C(=O)NCc3cn(-c4ccc(Cl)c(Cl)c4)nn3)[C@H](O)C[C@]3(C)C(=CC[C@@H]4[C@@]5(C)CC[C@H](O)C(C)(C)[C@@H]5CC[C@]43C)[C@@H]2C1
2.72

Entry CC1(C)CC[C@]2(C(=O)OCC(=O)NCc3cn(-c4ccc(Br)cc4)nn3)[C@H](O)C[C@]3(C)C(=CC[C@@H]4[C@@]5(C)CC[C@H](O)C(C)(C)[C@@H]5CC[C@]43C)[C@@H]2C1 : reported IC50 = ?
23.62

----------
Catalogue of inhibition values
Biological target: Alpha-glucosidase (Saccharomyces cerevisiae S288c) (UniProt P53341+P38158+P07265)
Experiment: Inhibition of alpha-glucosidase using 4-Nitrophenyl-[…]-D-glucopyranoside (pNPG) as substrate assessed as inhibition rate at 30 uM relative control
Format: protein assay
Write the number in % without appending the unit.

Solved entries (count: 4):
sample-smiles | output-unit | inhibition
CC1(C)CC[C@]2(C(=O)OCC(=O)NCc3cn(-c4ccc(Br)cc4)nn3)[C@H](O)C[C@]3(C)C(=CC[C@@H]4[C@@]5(C)CC[C@H](O)C(C)(C)[C@@H]5CC[C@]43C)[C@@H]2C1 | % | 68
COc1ccc(-c2nnc(COC(=O)[C@]34CCC(C)(C)C[C@H]3C3=CC[C@@H]5[C@@]6(C)CC[C@H](O)C(C)(C)[C@@H]6CC[C@@]5(C)[C@]3(C)C[C@H]4O)o2)cc1 | % | 56.5
CC1(C)CC[C@]2(C(=O)OCC(=O)NCc3cn(-c4ccc(Cl)cc4)nn3)[C@H](O)C[C@]3(C)C(=CC[C@@H]4[C@@]5(C)CC[C@H](O)C(C)(C)[C@@H]5CC[C@]43C)[C@@H]2C1 | % | 63.3
CC1(C)CC[C@]2(C(=O)NCc3cn(-c4ccc(Cl)cc4)nn3)[C@H](O)C[C@]3(C)C(=CC[C@@H]4[C@@]5(C)CC[C@H](O)C(C)(C)[C@@H]5CC[C@]43C)[C@@H]2C1 | % | 69.2

Recorded inhibition for COc1cc(-c2nnc(COC(=O)[C@]34CCC(C)(C)C[C@H]3C3=CC[C@@H]5[C@@]6(C)CC[C@H](O)C(C)(C)[C@@H]6CC[C@@]5(C)[C@]3(C)C[C@H]4O)o2)cc(OC)c1OC with Alpha-glucosidase (Saccharomyces cerevisiae S288c) (UniProt P53341+P38158+P07265), please?
49.1

Give Alpha-glucosidase (Saccharomyces cerevisiae S288c) (UniProt P53341+P38158+P07265) inhibition for COc1cc(-n2cc(CNC(=O)[C@]34CCC(C)(C)C[C@H]3C3=CC[C@@H]5[C@@]6(C)CC[C@H](O)C(C)(C)[C@@H]6CC[C@@]5(C)[C@]3(C)C[C@H]4O)nn2)cc(OC)c1OC
6.67

What measured inhibition is associated with CC1(C)CC[C@]2(C(=O)OCCn3ncn(-c4ccc(Cl)c(Cl)c4)c3=O)[C@H](O)C[C@]3(C)C(=CC[C@@H]4[C@@]5(C)CC[C@H](O)C(C)(C)[C@@H]5CC[C@]43C)[C@@H]2C1 on Alpha-glucosidase (Saccharomyces cerevisiae S288c) (UniProt P53341+P38158+P07265)?
80.3

----------
Item-by-item account of IC50
Molecular target: Alpha-glucosidase (Saccharomyces cerevisiae S288c, UniProt P53341+P38158+P07265)
Experiment: Inhibition of alpha-glucosidase using 4-Nitrophenyl-[…]-D-glucopyranoside (pNPG) as substrate
Type: protein assay

So what's the measured IC50 for this one? COc1ccc(-n2cc(CNC(=O)[C@]34CCC(C)(C)C[C@H]3C3=CC[C@@H]5[C@@]6(C)CC[C@H](O)C(C)(C)[C@@H]6CC[C@@]5(C)[C@]3(C)C[C@H]4O)nn2)cc1
> 30 µM

What does the data say about its IC50? Entry: CC1(C)CC[C@]2(C(=O)OCc3nc(-c4ccc(Cn5cncn5)cc4)no3)[C@H](O)C[C@]3(C)C(=CC[C@@H]4[C@@]5(C)CC[C@H](O)C(C)(C)[C@@H]5CC[C@]43C)[C@@H]2C1
> 30 µM

Reported IC50, compound CC1(C)CC[C@]2(C(=O)OCCn3ncn(-c4ccccc4)c3=O)[C@H](O)C[C@]3(C)C(=CC[C@@H]4[C@@]5(C)CC[C@H](O)C(C)(C)[C@@H]5CC[C@]43C)[C@@H]2C1 : ____
> 30 µM
